- Measured on: CDK16 (human) (UniProt Q00536)
- Sequence (Q00536 whole entry, looked up): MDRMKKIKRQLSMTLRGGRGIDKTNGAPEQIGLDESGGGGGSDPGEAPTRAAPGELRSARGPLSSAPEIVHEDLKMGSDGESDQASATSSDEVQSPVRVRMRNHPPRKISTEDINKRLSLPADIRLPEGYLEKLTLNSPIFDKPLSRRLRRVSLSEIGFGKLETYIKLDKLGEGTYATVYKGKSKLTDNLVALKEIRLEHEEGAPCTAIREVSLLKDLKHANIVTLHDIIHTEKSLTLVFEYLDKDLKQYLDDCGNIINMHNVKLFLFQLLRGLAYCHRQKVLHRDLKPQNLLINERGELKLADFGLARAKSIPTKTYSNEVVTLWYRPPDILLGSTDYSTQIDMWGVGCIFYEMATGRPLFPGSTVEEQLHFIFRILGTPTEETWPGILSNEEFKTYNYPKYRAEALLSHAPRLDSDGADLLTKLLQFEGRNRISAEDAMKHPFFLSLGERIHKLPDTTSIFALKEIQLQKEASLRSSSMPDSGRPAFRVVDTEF
- Assay comment: KINOMEscan competition binding
- Assay context: compound 1.0 µM
Examples of compounds with documented kinase still bound, per cent of control follow.

• CN(C)C/C=C/C(=O)Nc1cccc(C(=O)Nc2ccc(Nc3nccc(-c4cccnc4)n3)cc2)c1 = 89%

Provide CDK16 (human) (UniProt Q00536) kinase still bound, per cent of control reading for CN(C)C/C=C/C(=O)Nc1cccc(C(=O)Nc2ccc(Nc3nccc(/C(C#N)=C4\Nc5ccccc5S4)n3)cc2)c1 . 100%

Provide CDK16 (human) (UniProt Q00536) kinase still bound, per cent of control reading for CN(C)C/C=C/C(=O)Nc1cccc(C(=O)Nc2ccc(Nc3nccc(-c4c(-c5ccccc5)nn5ccccc45)n3)cc2)c1 . 100%

Provide CDK16 (human) (UniProt Q00536) kinase still bound, per cent of control reading for Cc1cc(NC(=O)c2cccc(NC(=O)/C=C/CN(C)C)c2)ccc1Nc1nccc(-c2cccnc2)n1 . 100%

###

- Measured on: MAPK11 (human) (UniProt Q15759)
- Sequence (Q15759 whole entry, looked up): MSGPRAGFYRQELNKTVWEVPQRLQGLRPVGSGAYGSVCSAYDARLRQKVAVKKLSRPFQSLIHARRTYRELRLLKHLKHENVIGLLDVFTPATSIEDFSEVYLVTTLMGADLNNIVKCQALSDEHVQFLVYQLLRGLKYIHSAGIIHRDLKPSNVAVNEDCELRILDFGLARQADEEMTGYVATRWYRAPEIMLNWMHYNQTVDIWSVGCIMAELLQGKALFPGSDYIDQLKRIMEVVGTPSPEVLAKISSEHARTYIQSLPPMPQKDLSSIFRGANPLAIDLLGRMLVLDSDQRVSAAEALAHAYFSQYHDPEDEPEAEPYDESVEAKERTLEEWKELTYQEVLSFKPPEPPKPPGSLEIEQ
- Assay comment: KINOMEscan competition binding
- Assay context: compound 1.0 µM
Examples of compounds with documented kinase still bound, per cent of control follow.
Express your answer in %, writing the number without its unit.

The cases that follow already have their kinase still bound, per cent of control on record.
• CN(C)C/C=C/C(=O)Nc1cccc(C(=O)Nc2ccc(Nc3nccc(/C(C#N)=C4\Nc5ccccc5S4)n3)cc2)c1 = 100
• CN(C)C/C=C/C(=O)Nc1cccc(C(=O)Nc2ccc(Nc3nccc(-c4cccnc4)n3)cc2)c1 = 95
• Cc1cc(NC(=O)c2cccc(NC(=O)/C=C/CN(C)C)c2)ccc1Nc1nccc(-c2cccnc2)n1 = 20

Provide MAPK11 (human) (UniProt Q15759) kinase still bound, per cent of control reading for CN(C)C/C=C/C(=O)Nc1cccc(C(=O)Nc2ccc(Nc3nccc(-c4c(-c5ccccc5)nn5ccccc45)n3)cc2)c1 . 6.6

###

Examples of molecules with documented kinase still bound, per cent of control follow.
- Measured on: STK36 (human)
- Assay comment: KINOMEscan competition binding
- Assay context: compound 1.0 µM
Express your answer in %, writing the number without its unit.

- Cc1cc(NC(=O)c2cccc(NC(=O)/C=C/CN(C)C)c2)ccc1Nc1nccc(-c2cccnc2)n1: 91
- CN(C)C/C=C/C(=O)Nc1cccc(C(=O)Nc2ccc(Nc3nccc(-c4cccnc4)n3)cc2)c1: 30
- CN(C)C/C=C/C(=O)Nc1cccc(C(=O)Nc2ccc(Nc3nccc(/C(C#N)=C4\Nc5ccccc5S4)n3)cc2)c1: 95

Now look at this entry.
Read off the recorded kinase still bound, per cent of control for CN(C)C/C=C/C(=O)Nc1cccc(C(=O)Nc2ccc(Nc3nccc(-c4c(-c5ccccc5)nn5ccccc45)n3)cc2)c1 2.2

###

- Measured on: TNIK (human)
- Assay comment: KINOMEscan competition binding
- Assay context: compound 1.0 µM
Property label: kinase still bound, per cent of control
Answer with the value and then the unit.

The cases that follow already have their kinase still bound, per cent of control on record.
- CN(C)C/C=C/C(=O)Nc1cccc(C(=O)Nc2ccc(Nc3nccc(/C(C#N)=C4\Nc5ccccc5S4)n3)cc2)c1: 100%
- CN(C)C/C=C/C(=O)Nc1cccc(C(=O)Nc2ccc(Nc3nccc(-c4c(-c5ccccc5)nn5ccccc45)n3)cc2)c1: 27%

Read off the recorded kinase still bound, per cent of control for Cc1cc(NC(=O)c2cccc(NC(=O)/C=C/CN(C)C)c2)ccc1Nc1nccc(-c2cccnc2)n1 56%

Read off the recorded kinase still bound, per cent of control for CN(C)C/C=C/C(=O)Nc1cccc(C(=O)Nc2ccc(Nc3nccc(-c4cccnc4)n3)cc2)c1 40%
